- Tested on: NNC #2 (full-length replicon) cells
- assayExplanation: Cytotoxicity in full-length replicon cells (GAPDH mRNA, real-time RT-PCR)
- Assay type: cell-based
- details: GAPDH RNA level, 3 days
- Protocol: The 70% confluent #50-1 (subgenomic replion) cells or NNC #2 (full-length replicon) cells (Ishii et al., J. Virol., 2006, vol. 80, pp. 4510-4520) were dispersed in a culture bottle with the aid of trypsin, and the resulting dispersion was resuspended in a high-glucose Dulbecco's modified Eagle medium (DMEM) containing 10% FCS and 1 mg/ml G418 (Sigma) (see FIGS. 1 and 2). […]
measuredQuantity: CC50 (µM)

- CCCCn1c(=O)c2ccccc2c2cc(C(O)(C(F)(F)F)C(F)(F)F)ccc21 [AA-24]: 11.9
